Measured Average of 2 trials SEPTTR-184 3DC values are reported for all entries that follow.
tested on: Zymoseptoria tritici (SEPTTR-184); experiment: Efficacy of target gene fragments (MgCytB dsRNA tiles) on wheat plants, SEPTTR-184; type: in vivo; parameters: scale not given here; settings: 200 ppm; 3DC (curative)
Format: numeric value only, no unit, no commentary.

>>> readout_value("MgCytB-T6: 258 bp dsRNA of Zymoseptoria CytB region T6, location 775-1032 (SEQ ID NO:9) (nucleic acid, listed as Zymoseptoria tritici, complementary strand of dsRNA) GTTATGGCTAACCCTATGCAAACTCCACCTGCTATAGTGCCTGAATGATATTTATTACCTTTCTACGCTATACTAAGATCAATACCTAACAAACTATTAGGTGTGATCGCAATGTTTTCTGCTATATTGATTATAATGATAATGCCAATTACCGATTTAGGTAGAAGTAGAGGATTACAGTTTAGACCTTTAAGCAAGATCACATTTTACATATTTGTTGCTAACTTCTTAGTATTAATGCAATTAGGTGCTAATCAC")
59

We now examine a further molecule.
Indicate the recorded Average of 2 trials SEPTTR-184 3DC value for this molecule: MgCytB-T7: 221 bp dsRNA of Zymoseptoria CytB region T7, location 947-1167 (SEQ ID NO:10) (nucleic acid, listed as Zymoseptoria tritici, complementary strand of dsRNA) GATTACAGTTTAGACCTTTAAGCAAGATCACATTTTACATATTTGTTGCTAACTTCTTAGTATTAATGCAATTAGGTGCTAATCACGTTGAGTCACCATTTATAGAATTTGGGCAAATTAGTACAGTACTGTACTTTTCACATTTCTTAATCATAGTGCCTCTAGTAAGCTTAATCGAGAATACTTTAGTGGATATGCACTTAAACAACACAATAACGTAA
76
